- assay_details: MTT cytotoxicity assay, 3T3 cells
- Format: cell-based, mouse
- conditions_used: mouse, 3T3 mouse embryo fibroblasts, 3T3; 10 000 b/j; koncentrace 30 nM; individual experiments; read-out: MTT viability (0 = 100)
measurement_name: viability at 72 h, 30 nM (%)
Answers are plain numbers, in %.

stdin: I would be grateful if you could share the reported viability at 72 h, 30 nM for CCNC(=S)NN=C(c1ccccc1)c1ccccn1 .
stdout: 89

###

- System: caspase 8
- assay_details: Caspase activity, luminescent kit, caspase 8;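 note: MCF-7 cells treated at 100 nM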
- Assay type: cell-based, human
- conditions_used: 24 hodin; normalised to viability; mean
Give kaspáza 8, signal / viabilita, průměry for every item shown.
Numbers only.

compound="CCNC(=O)NN=C(c1ccccc1)c1ccccn1 [E-Bp4eS, 2-benzoylpyridine 4-ethylsemicarbazone]" obs_value=16.4991
compound="CCNC(=O)NN=C(c1ccccc1)c1ccccn1 [Z-Bp4eS, 2-benzoylpyridine 4-ethylsemicarbazone]" obs_value=15.9994
compound="CCN=CNN=C(c1ccccc1)c1ccccn1 [Bp4eA]" obs_value=14.4858

Now for another entry.
stdin: // query kaspáza 8, signal / viabilita, průměry value for entry CCNC(=S)NN=C(c1ccccc1)c1ccccn1 [Bp4eT]
stdout: 19.8581

###

- assay_details: MTT cytotoxicity assay, 3T3 cells
- Type: cell-based, mouse
- conditions_used: mouse, 3T3 mouse embryo fibroblasts, 3T3; 10 000 b/j; koncentrace 30 μM; mean; read-out: MTT viability (0 = 100), průměr
Consider the following compounds; for each one, report its viability at 72 h, 30 μM.
Numbers only, in %.

compound="CCNC(=O)NN=C(c1ccccc1)c1ccccn1 [E-Bp4eS, 2-benzoylpyridine 4-ethylsemicarbazone]" obs_value=90.2

Next, consider the following compound.
stdin: # lookup: viability at 72 h, 30 μM of CCN=CNN=C(c1ccccc1)c1ccccn1 [Bp4eA]
stdout: 92.8

###

- System: MCF-7 human breast adenocarcinoma cells
- assay_details: MTT cytotoxicity assay, MCF-7 cells
- Assay type: cell-based
- conditions_used: MCF-7, 72 h/37°C, MTT; mean ± SD, n ≥ 4; read-out: IC50
- Experimental: For cytotoxicity experiments, cancer cells were seeded at a density of 5,000 (MCF-7), 10,000 (HL-60) or 2,000 cells/well (HCT116 and A549) in 96-well plates (TPP) for 24 h/37°C prior to the addition of examined agents. […] The viability of cells were determined using an MTT assay (Sigma-Aldrich) according to previously established methods. […] The viability or proliferation of experimental groups was expressed as a percentage of the untreated controls (100%). […]
measurement_name: pIC50
Give bare numbers, as −log10 of the molar value.

stdin: Please look up its pIC50: CCNC(=O)NN=C(c1ccccc1)c1ccccn1
stdout: 3.70

###

- assay_details: Ascorbate oxidation assay (redox activity of iron complexes)
- Type: biochemical
- conditions_used: IBE 0.1, čas 30 (time 30), mean (průměr)
Exercise: for every item that follows, state its recorded Absorbance (ascorbate, λ = 265 nm).
Give bare numbers.

compound="CC(=O)N(O)CCCCCNC(=O)CCC(=O)N(O)CCCCCNC(=O)CCC(=O)N(O)CCCCCN [DFO, deferoxamine, reference compound]" obs_value=0.7468
compound="O=C(O)CN(CCN(CC(=O)O)CC(=O)O)CC(=O)O [EDTA, reference compound]" obs_value=0.6579
compound="CCN=CNN=C(c1ccccc1)c1ccccn1 [Bp4eA]" obs_value=0.743
compound="CCNC(=O)NN=C(c1ccccc1)c1ccccn1 [E-Bp4eS, 2-benzoylpyridine 4-ethylsemicarbazone]" obs_value=0.7355
compound="CCNC(=O)NN=C(c1ccccc1)c1ccccn1 [Z-Bp4eS, 2-benzoylpyridine 4-ethylsemicarbazone]" obs_value=0.6875

stdin: Name the reported Absorbance (ascorbate, λ = 265 nm) value associated with the compound CCNC(=S)NN=C(c1ccccc1)c1ccccn1 [Bp4eT]
stdout: 0.731
